- ASSAY: chemical genetic growth profiling, strain panel (AID 1159580);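 note: tested at 20 µM; growth read once vehicle control cultures reached saturation at 30 °C; 1 = growth at the plate median or of vehicle wells; lower values mean less growth of the strain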
- CONDITION LABEL: S. cerevisiae deletion strains, growth OD, locus YDR334W, strain swr1, hits give low values
Hit rate of the full screen: of about 5,500 compounds, about 2,000 (36%) were called active. About 18% were inconclusive and are not listed. The list shows a part of the results.
For each of the compounds below, state its normalized growth.
Please reply with the number alone, leaving off any unit.

Prompt: Look at this compound and give its reported normalized growth. CCCCCCCCNC(C)C(O)c1ccc(SC(C)C)cc1 (stereo not drawn)
Completion: 0.0597

Prompt: Then this compound: CC(C)OC(=O)C(C)(C)Oc1ccc(C(=O)c2ccc(Cl)cc2)cc1
Completion: 0.976

Prompt: Then this compound: ClC1=C(Cl)C2(Cl)C3C(Cl)C=CC3C1(Cl)C2(Cl)Cl (stereo not drawn)
Completion: 1.02

Prompt: Then this compound: CN[C@@H](C)[C@@H](O)c1ccccc1
Completion: 1.01

Prompt: Then this compound: COc1ccc2c(c1OC)C(=O)O[C@H]2[C@H]1c2cc3c(cc2CCN1C)OCO3
Completion: 1

Prompt: Then this compound: CN(C)CC/C=C1\c2ccccc2Sc2ccc(Cl)cc21
Completion: 0.974

Prompt: Then this compound: CC(=O)OCC[N+](C)(C)C
Completion: 1.03

Prompt: Then this compound: CC(=O)[C@H]1CCC2C3CCC4=CC(=O)CC[C@]4(C)C3CC[C@@]21C (stereo partly drawn)
Completion: 0.985

Prompt: Then this compound: CCOC(=O)C(C)(C)Oc1ccc(Cl)cc1
Completion: 0.987

Prompt: Then this compound: CC1=C(C(C)O)C2=NC1C=c1[nH]c(c(C)c1C(C)O)=Cc1[nH]c(c(CCC(=O)O)c1C)C=c1[nH]c(c(C)c1CCC(=O)O)=C2 (stereo not drawn)
Completion: 0.993

Prompt: Then this compound: CC(=O)N[C@@H](CC(C)C)C(=O)O
Completion: 0.989

Prompt: Then this compound: Cc1[nH]c(C)c(Cl)c(=O)c1Cl
Completion: 1

Prompt: Then this compound: CC(=O)O[C@@H]1C[C@@]2(C)C(CC[C@@H]2C(C)=O)C2CCC3=CC(=O)CC[C@]3(C)C21 (stereo partly drawn)
Completion: 1.03

Prompt: Then this compound: COc1cc2c(cc1OC)[C@@H]1C(=O)c3ccc(OC)c(CC=C(C)C)c3O[C@@H]1CO2
Completion: 1.02

Prompt: Then this compound: C[C@]12CCC(=O)C=C1CCC1C2CC[C@@]2(C)C1CC[C@@H]2O (stereo partly drawn)
Completion: 1.01

Prompt: Then this compound: ClC1=C(Cl)C2(Cl)C3C4C=CC(C4)C3C1(Cl)C2(Cl)Cl (stereo not drawn)
Completion: 0.993

Prompt: Then this compound: COc1cc(NS(=O)(=O)c2ccc(N)cc2)nc(OC)n1
Completion: 0.974

Prompt: Then this compound: COc1ccc2c(c1)O[C@@H]1COc3cc(OC)c(OC)cc3[C@@H]1C2=O
Completion: 0.427

Prompt: Then this compound: NC(=O)C(c1ccccc1)(c1ccccc1)C1CCN(CCc2ccc3c(c2)CCO3)C1 (stereo not drawn)
Completion: 1.03

Prompt: Then this compound: CN(C)c1ccc(C(=C2C=CC(=[N+](C)C)C=C2)c2ccc(N(C)C)cc2)cc1
Completion: 0.578

Prompt: Then this compound: COc1cc2c(cc1OC)C(=O)OC2
Completion: 0.976

Prompt: Then this compound: CC(C[N+](C)(C)C)OC(N)=O (stereo not drawn)
Completion: 1.03

Prompt: Then this compound: CNC(C)[C@H](O)c1ccccc1 (stereo partly drawn)
Completion: 0.983
